Cited source: patent US8822494B2

Biological target: Human D1 (Homo sapiens (Human), UniProt P21728)
Sequence (P21728 whole entry): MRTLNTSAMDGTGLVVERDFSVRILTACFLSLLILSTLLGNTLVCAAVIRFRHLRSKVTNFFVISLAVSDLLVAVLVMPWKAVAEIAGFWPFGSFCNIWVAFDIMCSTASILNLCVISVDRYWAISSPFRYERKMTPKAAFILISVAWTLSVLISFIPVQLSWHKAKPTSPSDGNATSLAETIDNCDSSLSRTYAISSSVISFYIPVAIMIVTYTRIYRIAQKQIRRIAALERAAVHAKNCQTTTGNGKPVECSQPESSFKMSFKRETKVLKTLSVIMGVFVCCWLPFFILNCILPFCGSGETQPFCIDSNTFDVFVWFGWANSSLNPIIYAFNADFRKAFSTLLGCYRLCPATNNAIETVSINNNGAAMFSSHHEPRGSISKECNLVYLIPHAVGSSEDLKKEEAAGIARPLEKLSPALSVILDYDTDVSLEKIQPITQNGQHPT
Assay: Human D1 Receptor Binding Assay ([3H]-SCH23390 competition)
Settings: read-out: Human D1 Receptor Binding, Ki (μM); Geometric mean of 2-3 determinations; over-expressing LTK human cell lines, 0.5 nM [3H]-SCH23390, 30 min at 37° C.; footnote b = single determination, c = geometric mean of ≧4 determinations
RESULT TYPE: Ki (µM)
Lab book: enter the figure in µM, no units written.

COc1cnc(Oc2ccc(-c3c(C)n[nH]c(=O)c3C)cc2)c2cn[nH]c12	0.695
Cc1cc(Oc2nccc3[nH]ncc23)ccc1-c1cc(=O)[nH]nc1C	0.287

Query: What value of Ki has been reported for the following compound? Cc1cc(Oc2nccc3[nH]ccc23)ccc1-c1c(C)cnnc1C (single isomer, unassigned; ent-1) [Example 11]
Reply: 0.0141
